Data provenance is paper PMC11276849.

Target: PxutCSP19 (Papilio xuthus, UniProt A0A194QJK0)
Assay: Fluorescence competitive binding assay (1-NPN displacement), wildtype PxutCSP19
Details: Wildtype (WT); ligand up to 20 μM or 36 μM; displacing half of protein/1-NPN fluorescence
metric.name: pIC50
One number for each entry, as −log10 of the molar value.

Task: Any idea what pIC50 came out for "CN(C)C(CSS(=O)(=O)O)CSS(=O)(=O)O" on PxutCSP19 (Papilio xuthus, UniProt A0A194QJK0)?
Output: 4.77

###

Biological target: T1, PxutCSP19-T1 (Papilio xuthus, UniProt A0A194QJK0)
T1 sequence (A0A194QJK0 35-142): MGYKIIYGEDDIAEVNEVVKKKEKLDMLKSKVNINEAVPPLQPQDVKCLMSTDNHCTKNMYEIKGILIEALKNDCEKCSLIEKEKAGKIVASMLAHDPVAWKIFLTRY
Assay: Fluorescence competitive binding assay (1-NPN displacement), truncated PxutCSP19-T1
Settings: T1 (17 N-terminal residues truncated); ligand at 20 μM; read-out: F.D. (fluorescent displacement rate of ligands)
Protocol: In order to investigate the ligand-binding properties of PxutCSP19 to host odorants and insecticides, we first asked whether this fluorescent probe 1-NPN was available for the binding of PxutCSP19. […] The binding constant (K1-NPN) of 1-NPN to this protein was determined with GraphPad Prism 7 (GraphPad Software Inc., San Diego, CA), as previously described. […]
Field: inhibition at 20 µM. Provide a value for each of the compounds that follow.
Just the number plus its unit, please.

>>> value_observed("CCOP(=S)(OCC)O/N=C(\\C#N)c1ccccc1")
"83.1%"
>>> value_observed("CC(C)=CCC/C(C)=C\\CO")
"39.4%"
>>> value_observed("CCOP(=S)(OCC)Oc1nc(Cl)c(Cl)cc1Cl")
"70.3%"
>>> value_observed("C=C(C)[C@H]1Cc2c(ccc3c2O[C@@H]2COc4cc(OC)c(OC)cc4[C@@H]2C3=O)O1")
"61.8%"
>>> value_observed("COc1cc(C=O)cc(OC)c1O")
"42.7%"
>>> value_observed("CCOCn1c(-c2ccc(Cl)cc2)c(C#N)c(Br)c1C(F)(F)F")
"63.8%"
>>> value_observed("CC1=CCC(=C(C)C)CC1")
"40.1%"
>>> value_observed("C=CC(C)(O)CCC=C(C)C (centres unmarked)")
"39.8%"
>>> value_observed("C=C/C(C)=C/CC=C(C)C")
"43.1%"
>>> value_observed("O=C(NC(=O)c1c(F)cccc1F)Nc1cc(Cl)c(OC(F)(F)C(F)F)c(Cl)c1")
"56.5%"

Below is a list of compounds. For each, state its recorded inhibition at 20 µM.
1. CCCCCCCCO
2. CN(C)C(CSS(=O)(=O)O)CSS(=O)(=O)O
3. COC(=O)N(C(=O)N1CO[C@@]2(C(=O)OC)Cc3cc(Cl)ccc3C2=N1)c1ccc(OC(F)(F)F)cc1
4. O=C(NC(=O)c1c(F)cccc1F)Nc1cc(Cl)c(Oc2ncc(C(F)(F)F)cc2Cl)c(Cl)c1

Output:
1. 43.5%
2. 54.8%
3. 59.1%
4. 54.7%

###

Could you please report measured inhibition at 20 µM for the items listed next?
Target: PxutCSP19 (Papilio xuthus)
Experiment: Fluorescence competitive binding assay (1-NPN displacement), wildtype PxutCSP19
Conditions: read-out: F.D. (fluorescent displacement rate of ligands), Wildtype (WT); ligand at 20 μM; PxutCSP19/1-NPN each 2 μM; NB = no binding
Numbers only, in %.

>>> value_observed("CC1=CC[C@H](C(C)C)C=C1 [α-Phellandrene]")
34.1

Provide reported inhibition at 20 µM for each item, in the same order as listed.
1. O=CCc1ccccc1 [Phenylacetaldehyde]
2. CCCCCCCCCC=O [Decanal]
3. CC1=CCC2C(C1)C2(C)C (centres unmarked) [3-Carene]
4. CCCCCCCCCCC=O [Undecanal]
5. CCCCCCO [1-Hexanol]
6. c1ccc2[nH]ccc2c1 [Indole]

Output:
27.3
28.7
35.1
27.7
39
39

###

Target: PxutCSP19 (Papilio xuthus)
Test: Fluorescence competitive binding assay (1-NPN displacement), wildtype PxutCSP19
Details: read-out: F.D. (fluorescent displacement rate of ligands), Wildtype (WT); ligand at 20 μM; PxutCSP19/1-NPN each 2 μM; NB = no binding
Text: The open reading frame (ORF) of PxutCSP19 was cloned with a PrimeSTAR®® Max DNA Polymerase (TaKaRa, Liaoning, Dalian, China) and gene-specific primers containing restriction enzyme sites (BamH I and Xho I) (Table S2). The PCR products were detected on a 1.5% (w/v) agarose gel, and the expected bands were cut and purified using a HiPure Gel Pure DNA Mini Kit (Magen, Guangzhou, China). […]
metric.name: inhibition at 20 µM (%)
Answers are plain numbers, in %.

Dear reader, for each entry below, please note its inhibition at 20 µM.
1. O=Cc1ccccc1 [Benzaldehyde]
2. COP(=O)(NC(C)=O)SC (stereo not drawn) [Acephate, reference compound]
3. CC(=O)OC/C=C(\C)CCC=C(C)C [Geranyl acetate]
4. CCCCCCCC=O [Octanal]
5. Cc1ccc(C(C)C)cc1O [Carvacrol]

Output:
1: 36.9; 2: 37.1; 3: 33.3; 4: 22.8; 5: 37.4

###

Target: UniProt A0A194QJK0
Test: Fluorescence competitive binding assay (1-NPN displacement), wildtype PxutCSP19
Conditions: Wildtype (WT); ligand at 20 μM; PxutCSP19/1-NPN each 2 μM; NB = no binding
metric.name: F.D. (fluorescent displacement rate of ligands)
Quick note: unit goes after the number.

// known answers, use as guide
>>> value_observed("C/C1=C\\CC/C(C)=C/CC(C)(C)/C=C/C1")
"7.48%"
>>> value_observed("O=C(NC(=O)c1ccccc1Cl)Nc1ccc(Cl)cc1 [Chlorbenzuron, reference compound]")
"42.75%"

Attention now turns to another entry.
Task: Any idea what F.D. (fluorescent displacement rate of ligands) was measured for COP(=O)(OC)C(O)C(Cl)(Cl)Cl (stereo not drawn) [Trichlorphon, reference compound] ?
Output: 33.61%

###

Biological target: PxutCSP19 (Papilio xuthus)
Assay: Fluorescence competitive binding assay (1-NPN displacement), wildtype PxutCSP19
Conditions: read-out: F.D. (fluorescent displacement rate of ligands), Wildtype (WT); ligand at 20 μM; PxutCSP19/1-NPN each 2 μM; NB = no binding
metric.name: inhibition at 20 µM (%)
Give bare numbers, in %.

>>> value_observed("C=C1C2CCC(C2)C1(C)C (stereo not shown)")
34.5
>>> value_observed("CNC(=O)c1cc(Cl)cc(C)c1NC(=O)c1cc(Br)nn1-c1ncccc1Cl [Chlorantraniliprole, reference compound]")
43.6
>>> value_observed("O=C(NC(=O)c1ccccc1Cl)Nc1ccc(OC(F)(F)F)cc1 [Triflumuron, reference compound]")
28
>>> value_observed("CCOP(=S)(OCC)Oc1nc(Cl)c(Cl)cc1Cl")
75.1
>>> value_observed("CCC/C=C/C=O [(E)-2-Hexenal]")
33.8
>>> value_observed("CCOCn1c(-c2ccc(Cl)cc2)c(C#N)c(Br)c1C(F)(F)F")
58.7
>>> value_observed("CCCSP(=O)(OCC)Oc1ccc(Br)cc1Cl (stereo not shown) [Profenofos, reference compound]")
41
>>> value_observed("CC(C)=CCC/C(C)=C/CO")
39

Task: Value lookup for inhibition at 20 µM; key = "O=C(NC(=O)c1c(F)cccc1F)Nc1cc(Cl)c(Oc2ncc(C(F)(F)F)cc2Cl)c(Cl)c1"
Output: 60.5

###

Target: PxutCSP19-T1 (Papilio xuthus)
Test: Fluorescence competitive binding assay (1-NPN displacement), truncated PxutCSP19-T1
Conditions: T1; Ki = [IC50]/(1 + [1-NPN]/K1-NPN)
Description: In order to investigate the ligand-binding properties of PxutCSP19 to host odorants and insecticides, we first asked whether this fluorescent probe 1-NPN was available for the binding of PxutCSP19. […] The binding constant (K1-NPN) of 1-NPN to this protein was determined with GraphPad Prism 7 (GraphPad Software Inc., San Diego, CA), as previously described. […]
Please provide measured Ki for the entries that follow.
Answers are plain numbers, in µM.

Record excerpt, results attached:
>>> value_observed("CCCCCCCCO")
21.7
>>> value_observed("C=C/C(C)=C/CC=C(C)C")
19.9
>>> value_observed("CCOCn1c(-c2ccc(Cl)cc2)c(C#N)c(Br)c1C(F)(F)F")
6.47

# batch size: 2; output Ki per entry
1. O=C(NC(=O)c1c(F)cccc1F)Nc1cc(Cl)c(Oc2ncc(C(F)(F)F)cc2Cl)c(Cl)c1
2. CC(C)=CCC/C(C)=C\CO

Output:
1: 7.99; 2: 21.8

Hey, quick one: what's Ki for each of these?
1. CN(C)C(CSS(=O)(=O)O)CSS(=O)(=O)O
2. CC1=CCC(=C(C)C)CC1
3. C=CC(C)(O)CCC=C(C)C (centres unmarked)

Output:
11.1
21.1
20.8
